system: SF-268; test: NCI tumour cell line growth inhibition, 48 h
Activity calls are given as the source filed them. Cut-off read from the data, not from the text of the source: active = GI50 up to about 1.1 µM and inactive = higher.
Documented GI50 across a set of compounds

>  <compound>
Cc1cc(C)c2c(SCc3ccc(Cl)cc3Cl)nc(N)nc2n1

>  <GI50>
> 100 µM (inactive)

$$$$
>  <compound>
Nc1ncnc2sc(Nc3ccccc3)nc12

>  <GI50>
> 100 µM (inactive)

$$$$
>  <compound>
S=C(Nc1ccccc1)N1N=C2c3ccccc3CC[C@H]2[C@@H]1c1ccccc1

>  <GI50>
12.9 µM (inactive)

$$$$
>  <compound>
NCC(O)CSCc1ccc(Cl)cc1 (stereo not drawn)

>  <GI50>
> 100 µM (inactive)

$$$$
>  <compound>
COC(=O)/C=C1/CCC(C)(C(=O)NS(=O)(=O)c2ccc(C)cc2)C1(C)C (stereo not drawn)

>  <GI50>
> 100 µM (inactive)

$$$$
>  <compound>
N/C(=N\N=C\c1nc2ccccc2o1)c1cnccn1

>  <GI50>
> 100 µM (inactive)

$$$$
>  <compound>
O=c1[nH]cc(F)c(=O)[nH]1

>  <GI50>
51.4 µM (inactive)

$$$$
>  <compound>
CC1CCC2CC(=O)OC([C@@H]3C(=O)O[C@@H](C4=CCCC4)C4C(C)CCC43)C12 (stereo partly drawn)

>  <GI50>
> 100 µM (inactive)

$$$$
>  <compound>
CCC1C(=O)C(O)[C@H]2[C@@H]3C(O)CC4=CC(=O)CC[C@]4(C)[C@H]3CC[C@]12C (stereo partly drawn)

>  <GI50>
> 50 µM (inactive)

$$$$
>  <compound>
CC(C)(C)N/N=N/c1cn(C2OC(CO)C(O)C2O)c(=O)[nH]c1=O (stereo not drawn)

>  <GI50>
> 100 µM (inactive)

$$$$
>  <compound>
COc1ccc(-c2c(C#N)c(NC(=S)NC(=O)c3ccccc3)nc3c2CCCC3)cc1OC

>  <GI50>
41.8 µM (inactive)

$$$$
>  <compound>
Fc1ccc(/N=C/C=C/Nc2ccc(F)cc2)cc1

>  <GI50>
13.4 µM (inactive)

$$$$
>  <compound>
O=C1N=C2SC=C(NC(=S)Nc3ccccc3)N2NC12c1ccccc1-c1ccccc12

>  <GI50>
> 10 µM (inactive)

$$$$
>  <compound>
Clc1ccc(C(OCn2ccnc2)c2nc3ccccc3[nH]2)c(Cl)c1 (stereo not drawn)

>  <GI50>
61.8 µM (inactive)

$$$$
>  <compound>
Cn1c(=O)[nH]c2sc3c(c2c1=N)CCCC3

>  <GI50>
> 75 µM (inactive)

$$$$
>  <compound>
CC[C@]12C=CCN3CC[C@@]4(c5cc(N=O)c(OC)cc5N(C)[C@H]4[C@@](O)(C(=O)NC(Cc4c[nH]c5ccccc45)C(=O)OC)[C@@H]1O)[C@@H]32 (stereo partly drawn)

>  <GI50>
24.2 µM (inactive)

$$$$
>  <compound>
CC(=O)Nc1ccc(-c2nc3ccccc3s2)cc1C

>  <GI50>
64.4 µM (inactive)

$$$$
>  <compound>
CCN(CC)C(=C(C(Cl)=C(Cl)Cl)[N+](=O)[O-])N(CC)CC

>  <GI50>
41 µM (inactive)

$$$$

###

test system: COLO 205; test: NCI tumour cell line growth inhibition, 48 h
Calls of active or inactive are those of the source. Cut-off read from the data, not from the text of the source: active = GI50 up to about 1.1 µM and inactive = higher.
Possible outcomes: active, inactive

>  <compound>
CCN(CC)CCNc1ccc(/N=N/c2ccc(S(N)(=O)=O)cc2)c2ccccc12

>  <answer_label>
inactive

$$$$
>  <compound>
COc1ccc(C2CCC(Cl)(OC)CC2C=O)cc1 (stereo unspecified)

>  <answer_label>
inactive

$$$$
>  <compound>
CSc1cc(Cl)c(C(=O)Nc2ccccc2)cc1S(=O)(=O)n1ccnc1O

>  <answer_label>
inactive

$$$$
>  <compound>
C/C(CCc1ccccc1)=N\NC(N)=S

>  <answer_label>
inactive

$$$$
>  <compound>
OC1CCCCCCCCCCC1[S+]1CCCC1.O[B-](F)(F)F (stereo unspecified)

>  <answer_label>
inactive

$$$$
>  <compound>
Cc1cc(NS(=O)(=O)c2ccc(NC(=O)c3cccc4c(Nc5ccc(S(=O)(=O)Nc6cc(C)on6)cc5)c5ccccc5nc34)cc2)no1

>  <answer_label>
inactive

$$$$
>  <compound>
O=C(Nc1sccc1S(=O)(=O)c1ccccc1)c1ccccc1

>  <answer_label>
inactive

$$$$
>  <compound>
CCOP(=O)(OCC)OC1C=CC2CCC1C2 (stereo unspecified)

>  <answer_label>
inactive

$$$$
>  <compound>
CN(C)CCNc1ccc2c(=O)n(CCN(C)C)c(=O)n3c4ccc(N)cc4c(=O)c1c23

>  <answer_label>
active

$$$$
>  <compound>
CC(C)CN1CC(C)C(=O)NC1=O (stereo unspecified)

>  <answer_label>
inactive

$$$$
>  <compound>
NC(=O)N/N=C1/CCCC/C1=C\c1ccccc1

>  <answer_label>
inactive

$$$$
